Data provenance: PubChem BioAssay AID1963831

test system: 889142-216-R-J1-PDC complex spheroid viability; experiment: Anticancer human tumor 889142-216-R-J1-PDC patient-derived bladder carcinoma cell line growth inhibition [POLQ]; conditions: second compound 0.1 µM; first compound 10 µM; stronger effect = lower value
METRIC_NAME: viability, T/C

• O=C(Nc1ccc(O)c(NS(=O)(=O)c2ccc(F)cc2)c1)c1ccc(-c2ccccc2)cc1 + Nc1ccc(C#CCN(C(=O)Cc2ncc(C(F)(F)F)cc2C(F)(F)F)c2ccc(F)cc2)nn1 = 87.3%
• CC1COCCN1c1cc(C2(S(C)(=N)=O)CC2)nc(-c2ccnc3[nH]ccc23)n1 (centres undefined) + Cc1cccc(N(C)C(=O)C2C(O)CCN2c2nc(C)cc(C(F)(F)F)c2C#N)c1 = 45.8%
• C#Cc1c(F)ccc2cc(O)cc(-c3ncc4c(N5CC6CCC(C5)N6)nc(OCC56CCCN5CC(F)C6)nc4c3F)c12 (centres undefined) + COC1C(OC(N)=O)C(O)C(Oc2ccc3c(O)c(NC(=O)c4ccc(O)c(CC=C(C)C)c4)c(=O)oc3c2C)OC1(C)C = 44.3%
• CCc1cc2c(N3CCc4c(cc(Cn5ccnc5)cc4-c4cn(C)nc4C(F)(F)F)C3=O)ccnc2c(OC)n1 + COC1C(OC(N)=O)C(O)C(Oc2ccc3c(O)c(NC(=O)c4ccc(O)c(CC=C(C)C)c4)c(=O)oc3c2C)OC1(C)C = 62%

====

system: 889142-216-R-J1-PDC complex spheroid viability; experiment: Anticancer human tumor 889142-216-R-J1-PDC cell line growth inhibition [POLQ]; conditions: second compound 0.316 µM; first compound 0.316 µM; stronger effect = lower value;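 further: spheroids exposed to compounds for seven days; 100% = DMSO vehicle control viability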
With a cut-off of 70%, any viability, T/C strictly below it is called satisfied; any viability, T/C meeting it or above is called not satisfied.

* CCCS(=O)(=O)Nc1ccc(F)c(C(=O)c2c[nH]c3ncc(-c4ccc(Cl)cc4)cc23)c1F + Cc1cccc(N(C)C(=O)C2C(O)CCN2c2nc(C)cc(C(F)(F)F)c2C#N)c1 | not satisfied
* COc1cc2cc(C(=O)CCC(=O)O)sc2cc1OC + Nc1ccc(C#CCN(C(=O)Cc2ncc(C(F)(F)F)cc2C(F)(F)F)c2ccc(F)cc2)nn1 | not satisfied
* O=C(c1cc(Cc2n[nH]c(=O)c3ccccc23)ccc1F)N1CCN(C(=O)C2CC2)CC1 + Nc1ccc(C#CCN(C(=O)Cc2ncc(C(F)(F)F)cc2C(F)(F)F)c2ccc(F)cc2)nn1 | not satisfied
* COc1cc2cc(C(=O)CCC(=O)O)sc2cc1OC + Cc1cccc(N(C)C(=O)C2C(O)CCN2c2nc(C)cc(C(F)(F)F)c2C#N)c1 | not satisfied
* COc1ccc([C@@H](O)c2cc(-c3ncnc4cc(N5CCOCC5)ccc34)c(F)cc2Cl)nn1 + Nc1ccc(C#CCN(C(=O)Cc2ncc(C(F)(F)F)cc2C(F)(F)F)c2ccc(F)cc2)nn1 | not satisfied
* O=C(Nc1ccc(O)c(NS(=O)(=O)c2ccc(F)cc2)c1)c1ccc(-c2ccccc2)cc1 + Nc1ccc(C#CCN(C(=O)Cc2ncc(C(F)(F)F)cc2C(F)(F)F)c2ccc(F)cc2)nn1 | not satisfied
* COc1cccc2c1C(=O)c1c(O)c3c(c(O)c1C2=O)CC(O)(C(=O)CO)CC3OC1CC(N)C(O)C(C)O1 (stereo unspecified) + Cc1cccc(N(C)C(=O)C2C(O)CCN2c2nc(C)cc(C(F)(F)F)c2C#N)c1 | satisfied
* C#Cc1c(F)ccc2cc(O)cc(-c3ncc4c(N5CC6CCC(C5)N6)nc(OCC56CCCN5CC(F)C6)nc4c3F)c12 (stereo unspecified) + COC1C(OC(N)=O)C(O)C(Oc2ccc3c(O)c(NC(=O)c4ccc(O)c(CC=C(C)C)c4)c(=O)oc3c2C)OC1(C)C | not satisfied
* COc1cccc(OCCCN)c1-c1cc(Nc2cnc(C#N)cn2)n[nH]1 + COC1C(OC(N)=O)C(O)C(Oc2ccc3c(O)c(NC(=O)c4ccc(O)c(CC=C(C)C)c4)c(=O)oc3c2C)OC1(C)C | satisfied
* CC(C)n1c(=O)n(C)c2cnc3cc(F)c(-c4ccc(OCCCN5CCCCC5)nc4)cc3c21 + COC1C(OC(N)=O)C(O)C(Oc2ccc3c(O)c(NC(=O)c4ccc(O)c(CC=C(C)C)c4)c(=O)oc3c2C)OC1(C)C | not satisfied

====

system: 889142-216-R-J1-PDC complex spheroid viability; assay: Anticancer human tumor 889142-216-R-J1-PDC cell line growth inhibition [POLQ]; conditions: second compound 0.0316 µM; first compound 0.316 µM; stronger effect = lower value;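 further: spheroids exposed to compounds for seven days; 100% = DMSO vehicle control viability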
METRIC_NAME: viability, T/C

• O=C(Nc1ccc(O)c(NS(=O)(=O)c2ccc(F)cc2)c1)c1ccc(-c2ccccc2)cc1 + Nc1ccc(C#CCN(C(=O)Cc2ncc(C(F)(F)F)cc2C(F)(F)F)c2ccc(F)cc2)nn1 = 83.9%
• Nc1ccn(C2OC(CO)C(O)C2(F)F)c(=O)n1 (stereo not drawn) + Nc1ccc(C#CCN(C(=O)Cc2ncc(C(F)(F)F)cc2C(F)(F)F)c2ccc(F)cc2)nn1 = 46%
• CCCS(=O)(=O)Nc1ccc(F)c(C(=O)c2c[nH]c3ncc(-c4ccc(Cl)cc4)cc23)c1F + COC1C(OC(N)=O)C(O)C(Oc2ccc3c(O)c(NC(=O)c4ccc(O)c(CC=C(C)C)c4)c(=O)oc3c2C)OC1(C)C = 93.5%

====

system: 889142-216-R-J1-PDC complex spheroid viability; assay: Anticancer human tumor 889142-216-R-J1-PDC cell line growth inhibition [POLQ]; settings: second compound 0.0316 µM; first compound 0.0316 µM; stronger effect = lower value;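 further: spheroids exposed to compounds for seven days; 100% = DMSO vehicle control viability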
METRIC_NAME: viability, T/C (%)

- COc1cccc(OCCCN)c1-c1cc(Nc2cnc(C#N)cn2)n[nH]1 + COC1C(OC(N)=O)C(O)C(Oc2ccc3c(O)c(NC(=O)c4ccc(O)c(CC=C(C)C)c4)c(=O)oc3c2C)OC1(C)C: 51.2
- CC1COCCN1c1cc(C2(S(C)(=N)=O)CC2)nc(-c2ccnc3[nH]ccc23)n1 (configuration not stated) + COC1C(OC(N)=O)C(O)C(Oc2ccc3c(O)c(NC(=O)c4ccc(O)c(CC=C(C)C)c4)c(=O)oc3c2C)OC1(C)C: 99
- C=CCn1c(=O)c2cnc(Nc3ccc(N4CCN(C)CC4)cc3)nc2n1-c1cccc(C(C)(C)O)n1 + Nc1ccc(C#CCN(C(=O)Cc2ncc(C(F)(F)F)cc2C(F)(F)F)c2ccc(F)cc2)nn1: 88.4
- CC(C)n1c(=O)n(C)c2cnc3cc(F)c(-c4ccc(OCCCN5CCCCC5)nc4)cc3c21 + COC1C(OC(N)=O)C(O)C(Oc2ccc3c(O)c(NC(=O)c4ccc(O)c(CC=C(C)C)c4)c(=O)oc3c2C)OC1(C)C: 91.2
- CCCS(=O)(=O)Nc1ccc(F)c(C(=O)c2c[nH]c3ncc(-c4ccc(Cl)cc4)cc23)c1F + Cc1cccc(N(C)C(=O)C2C(O)CCN2c2nc(C)cc(C(F)(F)F)c2C#N)c1: 100
- COc1ccc([C@@H](O)c2cc(-c3ncnc4cc(N5CCOCC5)ccc34)c(F)cc2Cl)nn1 + Nc1ccc(C#CCN(C(=O)Cc2ncc(C(F)(F)F)cc2C(F)(F)F)c2ccc(F)cc2)nn1: 84.6
- CCc1cc2c(N3CCc4c(cc(Cn5ccnc5)cc4-c4cn(C)nc4C(F)(F)F)C3=O)ccnc2c(OC)n1 + Nc1ccc(C#CCN(C(=O)Cc2ncc(C(F)(F)F)cc2C(F)(F)F)c2ccc(F)cc2)nn1: 98
- CNCc1ccc(-c2[nH]c3cc(F)cc4c3c2CCNC4=O)cc1 + Nc1ccc(C#CCN(C(=O)Cc2ncc(C(F)(F)F)cc2C(F)(F)F)c2ccc(F)cc2)nn1: 109
- CNCc1ccc(-c2[nH]c3cc(F)cc4c3c2CCNC4=O)cc1 + Cc1cccc(N(C)C(=O)C2C(O)CCN2c2nc(C)cc(C(F)(F)F)c2C#N)c1: 110
- COc1cccc(OCCCN)c1-c1cc(Nc2cnc(C#N)cn2)n[nH]1 + Cc1cccc(N(C)C(=O)C2C(O)CCN2c2nc(C)cc(C(F)(F)F)c2C#N)c1: 53.7
- CCc1c2c(nc3ccc(O)cc13)-c1cc3c(c(=O)n1C2)COC(=O)[C@]3(O)CC + Nc1ccc(C#CCN(C(=O)Cc2ncc(C(F)(F)F)cc2C(F)(F)F)c2ccc(F)cc2)nn1: 41.2
- CC1COCCN1c1cc(-c2ccnn2C)c2ccnc(-c3ccn[nH]3)c2n1 (configuration not stated) + Nc1ccc(C#CCN(C(=O)Cc2ncc(C(F)(F)F)cc2C(F)(F)F)c2ccc(F)cc2)nn1: 69.5

====

tested on: 889142-216-R-J1-PDC complex spheroid viability; assay: Anticancer human tumor 889142-216-R-J1-PDC cell line growth inhibition [POLQ]; conditions: second compound 1 µM; first compound 0.1 µM; stronger effect = lower value;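 further: spheroids exposed to compounds for seven days; 100% = DMSO vehicle control viability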
With a cut-off of 90%, any viability, T/C strictly below it is called Criterion met; any viability, T/C meeting it or above is called Criterion not met.

- COc1cccc(OCCCN)c1-c1cc(Nc2cnc(C#N)cn2)n[nH]1 + COC1C(OC(N)=O)C(O)C(Oc2ccc3c(O)c(NC(=O)c4ccc(O)c(CC=C(C)C)c4)c(=O)oc3c2C)OC1(C)C: Criterion met
- COc1cc2cc(C(=O)CCC(=O)O)sc2cc1OC + COC1C(OC(N)=O)C(O)C(Oc2ccc3c(O)c(NC(=O)c4ccc(O)c(CC=C(C)C)c4)c(=O)oc3c2C)OC1(C)C: Criterion not met
- COc1cc(C2c3cc4c(cc3C(OC3OC5COC(C)OC5C(O)C3O)C3COC(=O)C23)OCO4)cc(OC)c1O (configuration not stated) + Nc1ccc(C#CCN(C(=O)Cc2ncc(C(F)(F)F)cc2C(F)(F)F)c2ccc(F)cc2)nn1: Criterion not met
- O=C(Nc1ccc(O)c(NS(=O)(=O)c2ccc(F)cc2)c1)c1ccc(-c2ccccc2)cc1 + Cc1cccc(N(C)C(=O)C2C(O)CCN2c2nc(C)cc(C(F)(F)F)c2C#N)c1: Criterion not met
- C=CCn1c(=O)c2cnc(Nc3ccc(N4CCN(C)CC4)cc3)nc2n1-c1cccc(C(C)(C)O)n1 + Nc1ccc(C#CCN(C(=O)Cc2ncc(C(F)(F)F)cc2C(F)(F)F)c2ccc(F)cc2)nn1: Criterion met
- CC1COCCN1c1cc(C2(O)CC3CCC(C2)O3)c2cnn(-c3ccn[nH]3)c2n1 (configuration not stated) + Cc1cccc(N(C)C(=O)C2C(O)CCN2c2nc(C)cc(C(F)(F)F)c2C#N)c1: Criterion met
- Nc1ccn(C2OC(CO)C(O)C2(F)F)c(=O)n1 (configuration not stated) + Cc1cccc(N(C)C(=O)C2C(O)CCN2c2nc(C)cc(C(F)(F)F)c2C#N)c1: Criterion met
- COc1cc(C2c3cc4c(cc3C(OC3OC5COC(C)OC5C(O)C3O)C3COC(=O)C23)OCO4)cc(OC)c1O (configuration not stated) + COC1C(OC(N)=O)C(O)C(Oc2ccc3c(O)c(NC(=O)c4ccc(O)c(CC=C(C)C)c4)c(=O)oc3c2C)OC1(C)C: Criterion not met
- CNCc1ccc(-c2[nH]c3cc(F)cc4c3c2CCNC4=O)cc1 + Cc1cccc(N(C)C(=O)C2C(O)CCN2c2nc(C)cc(C(F)(F)F)c2C#N)c1: Criterion not met
- CCc1cc2c(N3CCc4c(cc(Cn5ccnc5)cc4-c4cn(C)nc4C(F)(F)F)C3=O)ccnc2c(OC)n1 + COC1C(OC(N)=O)C(O)C(Oc2ccc3c(O)c(NC(=O)c4ccc(O)c(CC=C(C)C)c4)c(=O)oc3c2C)OC1(C)C: Criterion not met
- CC(C)n1c(=O)n(C)c2cnc3cc(F)c(-c4ccc(OCCCN5CCCCC5)nc4)cc3c21 + Cc1cccc(N(C)C(=O)C2C(O)CCN2c2nc(C)cc(C(F)(F)F)c2C#N)c1: Criterion not met
